Values were extracted from the supplement of paper PMC6757056.

B1: library; a variant is named by its letters at N, in order (parent)
chain: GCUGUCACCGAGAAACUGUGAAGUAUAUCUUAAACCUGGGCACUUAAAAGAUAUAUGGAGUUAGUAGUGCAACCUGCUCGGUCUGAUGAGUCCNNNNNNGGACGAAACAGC

Variants of: B1
Test: FACS-Seq fitted mean relative fluorescence mCherry/BFP without ligand (log10 relative fluorescence); HEK293T; ligand: cyclic di-GMP (c-di-GMP-II aptamer); higher = higher reporter protein expression
Conditions: ligand present: no
measuredQuantity: FACS-Seq fitted mean (log10)
Hey, just send me the number, nothing else.

FACS-Seq fitted mean (log10) for GCUGUCACCGAGAAACUGUGAAGUAUAUCUUAAACCUGGGCACUUAAAAGAUAUAUGGAGUUAGUAGUGCAACCUGCUCGGUCUGAUGAGUCCAGCAGCGGACGAAACAGC ?
-0.317

What value of measured FACS-Seq fitted mean (log10) is listed for GCUGUCACCGAGAAACUGUGAAGUAUAUCUUAAACCUGGGCACUUAAAAGAUAUAUGGAGUUAGUAGUGCAACCUGCUCGGUCUGAUGAGUCCACUUUAGGACGAAACAGC ?
-1.11

GET /values?readout=FACS-Seq fitted mean (log10)&item= GCUGUCACCGAGAAACUGUGAAGUAUAUCUUAAACCUGGGCACUUAAAAGAUAUAUGGAGUUAGUAGUGCAACCUGCUCGGUCUGAUGAGUCCCGUACUGGACGAAACAGC
-0.584

Fill in: FACS-Seq fitted mean (log10) of GCUGUCACCGAGAAACUGUGAAGUAUAUCUUAAACCUGGGCACUUAAAAGAUAUAUGGAGUUAGUAGUGCAACCUGCUCGGUCUGAUGAGUCCUGUAGUGGACGAAACAGC is ___
0.04

Which FACS-Seq fitted mean (log10) is reported for this variant? GCUGUCACCGAGAAACUGUGAAGUAUAUCUUAAACCUGGGCACUUAAAAGAUAUAUGGAGUUAGUAGUGCAACCUGCUCGGUCUGAUGAGUCCGUAAAAGGACGAAACAGC
-0.251

What value of FACS-Seq fitted mean (log10) has been recorded for this entry: GCUGUCACCGAGAAACUGUGAAGUAUAUCUUAAACCUGGGCACUUAAAAGAUAUAUGGAGUUAGUAGUGCAACCUGCUCGGUCUGAUGAGUCCAUCUGCGGACGAAACAGC
-0.0609

Sample GCUGUCACCGAGAAACUGUGAAGUAUAUCUUAAACCUGGGCACUUAAAAGAUAUAUGGAGUUAGUAGUGCAACCUGCUCGGUCUGAUGAGUCCAGUAGGGGACGAAACAGC — what was its FACS-Seq fitted mean (log10)?
-1.02

Give its FACS-Seq fitted mean (log10) value. Item: GCUGUCACCGAGAAACUGUGAAGUAUAUCUUAAACCUGGGCACUUAAAAGAUAUAUGGAGUUAGUAGUGCAACCUGCUCGGUCUGAUGAGUCCACGGGAGGACGAAACAGC
-0.467

Give its FACS-Seq fitted mean (log10) value. Item: GCUGUCACCGAGAAACUGUGAAGUAUAUCUUAAACCUGGGCACUUAAAAGAUAUAUGGAGUUAGUAGUGCAACCUGCUCGGUCUGAUGAGUCCAAACAGGGACGAAACAGC
-0.103

Consider the variant GCUGUCACCGAGAAACUGUGAAGUAUAUCUUAAACCUGGGCACUUAAAAGAUAUAUGGAGUUAGUAGUGCAACCUGCUCGGUCUGAUGAGUCCCACACUGGACGAAACAGC and give its measured FACS-Seq fitted mean (log10).
-0.437

Fill blank: measured FACS-Seq fitted mean (log10) of the variant GCUGUCACCGAGAAACUGUGAAGUAUAUCUUAAACCUGGGCACUUAAAAGAUAUAUGGAGUUAGUAGUGCAACCUGCUCGGUCUGAUGAGUCCGCUUCUGGACGAAACAGC is ____.
-0.156

# FACS-Seq fitted mean (log10) lookup, item GCUGUCACCGAGAAACUGUGAAGUAUAUCUUAAACCUGGGCACUUAAAAGAUAUAUGGAGUUAGUAGUGCAACCUGCUCGGUCUGAUGAGUCCUCAGUCGGACGAAACAGC
-0.277
